# Study system: T1, Z-Phe-Arg-MCA
# T1 chain: FR
Measurement name: kcat/Km (mM^-1 · min^-1)

INSERT INTO measurements (protein, measurement_name, val) VALUES
  ('Medaka EP-1 serine protease domain mutant E173A (protein) VVGGVNAEKGAWPWMVSLHWRGRHGCGASLIGRDWLLTAAHCVYGKNTHLQYWSAVLGLHAQSSMNSQEVQIRQVDRIIINKNYNRRTKEADIAMMHLQQPVNFTEWVLPVCLASEDQHFPAGRRCFIAGWGRDAEGGSLPDILQEAEVPLVDQDACQRLLPEYTFTSSMLCAGYPEGGVDSCQGDSGGPLMCLEDARWTLIGVTSFGVGCGRPERPGAYARVSAFTSWIAETRRSSFSDLD', 'kcat/Km (mM^-1 · min^-1)', 6),
  ('Medaka EP-1 serine protease domain mutant P193E (protein) VVGGVNAEKGAWPWMVSLHWRGRHGCGASLIGRDWLLTAAHCVYGKNTHLQYWSAVLGLHAQSSMNSQEVQIRQVDRIIINKNYNRRTKEADIAMMHLQQPVNFTEWVLPVCLASEDQHFPAGRRCFIAGWGRDAEGGSLPDILQEAEVPLVDQDECQRLLPEYTFTSSMLCAGYEEGGVDSCQGDSGGPLMCLEDARWTLIGVTSFGVGCGRPERPGAYARVSAFTSWIAETRRSSFSDLD', 'kcat/Km (mM^-1 · min^-1)', 9);
